Hello, the source for this data is the supplement of paper PMC9112550, in case you need it.

# System: Escherichia coli TOP10;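 also: peptides expressed intracellularly from a pBAD plasmid library in pooled LB shake-flask culture, induced with 0.3% L-arabinose, DNA abundance read by NGS, three biological replicates, DESeq2 with apeglm shrinkage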
# run.description: shrunken log2 fold change of peptide-encoding DNA abundance (4.5 h post-induction vs induction); higher = less antimicrobial activity (less host growth inhibition)
# condition.parameters: time post-induction: 4.5 h; library: site-saturation at positions 5, 18, 19, 20
The following sequences are listed with their measured shrunken log2 fold change values.
endpoint: shrunken log2 fold change

1. RRIRLRPPRLPRPRPRPLWFPRP :: -0.543
2. RRIRDRPPRLPRPRPRPKRPPRP :: 0.449
3. RRIRGRPPRLPRPRPRPFIHPRP :: 0.0282
4. RRIRHRPPRLPRPRPRPALHPRP :: 0.111
5. RRIRIRPPRLPRPRPRPEMGPRP :: -0.105
6. RRIRQRPPRLPRPRPRPRIIPRP :: 0.00299
7. RRIRKRPPRLPRPRPRPICKPRP :: 0.363
8. RRIRGRPPRLPRPRPRPDRPPRP :: 0.376
